B1: KLHL14 (parent)
chain: WLYCYDPVMDVWARKQDMNTKRAI

# Variants of: B1
# ASSAY_PROTOCOL: protein stability index of a GFP-peptide fusion (GPS, HEK-293T) (PSI 1-6); higher = more stable;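 also: lentivirally expressed fusions sorted by FACS into six bins by GFP to DsRed ratio, PSI derived from sequencing read proportions per bin multiplied by bin number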
# CONDITIONS_USED: c terminus: a fixed tail appended
READOUT_TYPE: protein stability index
Give bare numbers.

Record excerpt, results attached:
1) R14E = 2.13
2) R22F = 1.51

// each listed variant needs a value for protein stability index
1. K15I
2. P7N
3. K21E
4. R22T
5. P7Q

a:
1. 2.11
2. 1.84
3. 1.91
4. 1.91
5. 1.51
